Where do these numbers come from? They come from paper PMC6112376.

Reported Emax by item:
System: HepG2 cells
assay_overview: cells
cond: Homo sapiens, HepG2, read-out: MMP assays efficacy (%) HepG2

molecule	Emax [%]
Clc1ccc(Sc2cc(Cl)c(Cl)cc2Cl)cc1	72
OCc1c2ccccc2cc2ccccc12	88
CO[C@H]1/C=C/O[C@@]2(C)Oc3c(C)c(O)c4c(O)c(c(/C=N/N5CCN(C6CCCC6)CC5)c(O)c4c3C2=O)NC(=O)/C(C)=C\C=C\[C@H](C)[C@H](O)[C@@H](C)[C@@H](O)[C@@H](C)[C@H](OC(C)=O)[C@@H]1C [Rifapentine, reference compound]	101

----------
Tested on: rat primary hepatocytes
assay_overview: MMP assay in rat primary hepatocytes
cond: Rattus norvegicus, Hepatocyte, read-out: MMP assays IC50 (µM) Rat Hepatocytes
Structures can show the parent of a compound that is named as a salt.
Please assign not fulfilled whenever IC50 is at or above 20 µM, and fulfilled whenever it is below.

>>> df
                                   molecule  assigned_category
0  Cc1c(C(=O)NN2CCCCC2)nn(-c2ccc(Cl)cc2Cl)c1-c1ccc(Cl)cc1 [Rimonabant]          fulfilled
1  O=c1c(O)c(-c2ccc(O)cc2)oc2cc(O)cc(O)c12 [Kaempferol]      not fulfilled
2  Oc1cc(O)c(Cl)cc1Cl [4,6-Dichloro-1,3-benzenediol]      not fulfilled
3  C=C1/C(=C\C=C2/CCC[C@]3(C)[C@@H]([C@H](C)/C=C/[C@@H](O)C4CC4)CC[C@@H]23)C[C@@H](O)C[C@@H]1O [Calcipotriene]          fulfilled
4  Nc1ccc(/N=N/c2ccccc2)c(N)n1 [Phenazopyridine hydrochloride]      not fulfilled
5  O=C1c2cccc(O)c2C(=O)c2c(O)cc(CO)cc21 [Aloe-emodin]          fulfilled
6  CCOc1ccc(/N=N/c2ccc(N)cc2N)cc1 [Ethoxazene]          fulfilled
7  Cc1cccc(Nc2ccccc2)c1 [Compound 3-Methyl-N-phenylaniline]      not fulfilled
8  Cc1ccc2c(Br)cc(Br)c(O)c2n1 [Broquinaldol]      not fulfilled

----------
Test system: rat primary hepatocytes
assay_overview: MMP assay in rat primary hepatocytes
cond: rat hepatocytes; mean ± SD of three experiments
assay_readout: MMP assays efficacy (%) Rat Hepatocytes

                                   molecule  reported_value
0  CC(C)(C)c1ccc(OC(=O)c2ccccc2O)cc1 [4-tert-Butylphenyl salicylate]        inactive
1  Oc1cccc(Nc2ccccc2)c1 [Compound 3-Hydroxy-N-phenylaniline]        inactive
2    Cc1cc2nc3ccc(N(C)C)cc3[s+]c2cc1N.[Cl-]        inactive

----------
Tested on: rat primary hepatocytes
Reported MMP assays efficacy (%) Rat Hepatocytes by item:
assay_readout: MMP assays efficacy (%) Rat Hepatocytes

>>> print(df.to_string())
                                smiles_text  scale_unit  reported_value
0  CS(=O)(=O)O.CS(=O)(=O)O.N=C(N)c1ccc(/C=C/c2ccc(C(=N)N)cc2O)cc1           %             -71
1                          CN(C)c1ccc(N)cc1           %             -69

----------
Form: system (rat primary hepatocytes), quantity (MMP assays efficacy (%) Rat Hepatocytes), values below.
assay_readout: MMP assays efficacy (%) Rat Hepatocytes

>>> print(df.to_string())
                                   compound          subject_of_test  reported_value
0                   CCO[Si](CC(C)C)(OCC)OCC  rat primary hepatocytes        inactive
1  ClC1=C(Cl)C2(Cl)C3C4CC(C5OC45)C3C1(Cl)C2(Cl)Cl (stereo not drawn)  rat primary hepatocytes        inactive
2          CC(C)=CCC1=C(O)C(=O)c2ccccc2C1=O  rat primary hepatocytes        inactive
